Data provenance: ChEMBL document CHEMBL2057119

- System Under Test: Amyloid-beta precursor protein (Homo sapiens, UniProt P05067)
- Sequence (P05067 whole entry): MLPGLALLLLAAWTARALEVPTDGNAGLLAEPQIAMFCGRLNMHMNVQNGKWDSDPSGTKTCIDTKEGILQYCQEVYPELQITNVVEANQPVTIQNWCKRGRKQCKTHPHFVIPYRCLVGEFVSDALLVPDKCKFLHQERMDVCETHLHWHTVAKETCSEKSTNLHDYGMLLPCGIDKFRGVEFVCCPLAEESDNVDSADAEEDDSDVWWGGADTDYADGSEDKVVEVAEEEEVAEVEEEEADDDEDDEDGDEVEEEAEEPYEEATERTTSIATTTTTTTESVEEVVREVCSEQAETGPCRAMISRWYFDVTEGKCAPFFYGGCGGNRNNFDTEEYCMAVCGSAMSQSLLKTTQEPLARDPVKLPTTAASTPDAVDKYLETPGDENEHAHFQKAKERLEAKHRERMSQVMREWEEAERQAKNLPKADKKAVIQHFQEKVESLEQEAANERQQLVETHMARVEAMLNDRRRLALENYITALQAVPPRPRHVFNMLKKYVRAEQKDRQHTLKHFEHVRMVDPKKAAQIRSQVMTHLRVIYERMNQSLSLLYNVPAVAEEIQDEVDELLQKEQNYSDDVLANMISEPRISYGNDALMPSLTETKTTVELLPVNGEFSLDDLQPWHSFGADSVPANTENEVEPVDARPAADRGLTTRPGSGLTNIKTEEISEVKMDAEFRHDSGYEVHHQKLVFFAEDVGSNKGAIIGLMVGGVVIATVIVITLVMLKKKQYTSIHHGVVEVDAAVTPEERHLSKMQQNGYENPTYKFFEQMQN
- Protocol Notes: Inhibition of amyloid beta (1 to 42) fibril formation after 1 hr by ThT spectrofluorometric analysis
Endpoint: IC50 (µM)

1) CN(C)c1cc(/C=C/c2cc(/C=C/c3ccc(O)c(N(C)C)c3)ncn2)ccc1O = 3.7

P. COc1nc(/C=C/c2ccc(N(C)C)c(O)c2)cc(/C=C/c2ccc(N(C)C)c(O)c2)n1
Q. COc1cc(/C=C/c2cc(/C=C/c3ccc(O)c(OC)c3)ncn2)ccc1O
Could you tell me which of these two has the smaller IC50 figure? First: P Second: Q Indicate which entry you chose by stating its label.
P
(P: 0.8 µM, Q: 3.2 µM)

###

- Protocol Notes: Cytotoxicity against mouse HT22 cells assessed as viability at 10 uM after 18 hrs by MTT assay
- Format: cell-based, HT-22
- Experimental Context: read-out: Activity
Endpoint: viability at 18 h, 10 µM (%)
Please respond with the number in % and leave the unit unwritten.

1) CN(C)c1ccc(/C=C/c2cc(O)cc(/C=C/c3ccc(N(C)C)c(O)c3)c2)cc1O = 64.4
2) CSc1nc(/C=C/c2ccc(N(C)C)c(O)c2)cc(/C=C/c2ccc(N(C)C)c(O)c2)n1 = 85.3

Proceeding to the next molecule to report its viability at 18 h, 10 µM.
Memo: COc1cc(/C=C/c2cc(/C=C/c3ccc(O)c(OC)c3)ncn2)ccc1O , reported viability at 18 h, 10 µM: 216

###

- Protocol Notes: Cytotoxicity against mouse HT22 cells assessed as viability at 10 uM after 18 hrs by MTT assay
- Format: cell-based, HT-22
- Experimental Context: read-out: Activity
Endpoint: viability at 18 h, 10 µM (%)
Form entry: value (%) — number only.

Please fill in: viability at 18 h, 10 µM reported for COc1ccc(/C=C/c2cc(O)cc(/C=C/c3ccc(OC)c(O)c3)c2)cc1O = 73.5

Given item Oc1cccc(/C=C/c2cc(O)cc(/C=C/c3cccc(O)c3)c2)c1 , the value recorded as its viability at 18 h, 10 µM is 59.2

###

- Protocol Notes: Cytotoxicity against mouse HT22 cells assessed as viability at 10 uM after 18 hrs by MTT assay
- Type: cell-based, HT-22
- Experimental Context: read-out: Activity
// reported viability at 18 h, 10 µM per item
Report as a plain number; the unit % is understood.

Example entries and their recorded answers appear below.
1) Oc1ccc(/C=C/c2cccc(/C=C/c3ccc(O)cc3)c2)cc1 = 102
2) CN(C)c1cc(/C=C/c2cccc(/C=C/c3ccc(O)c(N(C)C)c3)c2)ccc1O = 95.7
3) COc1nc(/C=C/c2ccc(O)cc2)cc(/C=C/c2ccc(O)cc2)n1 = 101

Consider COc1ccc(/C=C/c2cc(/C=C/c3ccc(OC)c(O)c3)ncn2)cc1O . Its measured viability at 18 h, 10 µM is 136

# viability at 18 h, 10 µM of CSc1nc(/C=C/c2cccc(O)c2)cc(/C=C/c2cccc(O)c2)n1 = 43.7

Please fill in: viability at 18 h, 10 µM reported for COc1nc(/C=C/c2ccc(O)c(OC)c2)cc(/C=C/c2ccc(O)c(OC)c2)n1 = 75.2
